Origin of values: patent US20240228491A1

System: KP-4 cells
Assay: Inhibitory activity test of KP-4 cells
Format: cell-based
Conditions: Homo sapiens, 144 h incubation, read-out: KP-4 cell inhibitory activity IC50
So I've got a bunch of molecules here, and I need their log10 IC50 values.
Form field - Quantity: IC50; Unit: nM; Scale: log10

What value of log10 IC50 has been reported for the following molecule? "Nc1c(-c2ccc3ncoc3c2)c(=O)n(-c2ccc(Cl)cc2)c2nc(C(F)(F)F)ccc12" 2.86

Now consider "CS(=O)(=O)CCn1ncc2cc(-c3c(N)c4ccc(C(F)(F)F)nc4n(-c4ccc(Cl)cc4)c3=O)ccc21" and answer again. 2.88

Now consider "COc1ccc(-c2c(N)c3ccc(C(F)(F)F)nc3n(-c3ccc(Cl)cc3)c2=O)cn1" and answer again. 2.81

Now consider "COc1ccc(-c2c(N)c3ccc(C(F)(F)F)nc3n(-c3ccc(Cl)cc3)c2=O)cc1" and answer again. 2.00

Now consider "COc1cc(-c2c(N)c3ccc(C(F)(F)F)nc3n(-c3ccc(Cl)cc3)c2=O)ccn1" and answer again. 3.05

Now consider "Nc1c(-c2ccc3c(c2)OCCO3)c(=O)n(-c2ccc(Cl)cc2)c2nc(C(F)(F)F)ccc12" and answer again. 2.38

Now consider "Nc1c(-c2ccc3ncncc3c2)c(=O)n(-c2ccc(Cl)cc2)c2nc(C(F)(F)F)ccc12" and answer again. 2.26

Now consider "Nc1c(-n2cncn2)c(=O)n(-c2ccc(Cl)cc2)c2nc(C(F)(F)F)ccc12" and answer again. 3.49

Now consider "CNc1c(-c2ccc(F)cc2)c(=O)n(-c2ccccc2)c2nc(C(F)(F)F)ccc12" and answer again. 4.01

Now consider "Nc1c(-c2ccc3nccnc3n2)c(=O)n(-c2ccc(Cl)cc2)c2nc(C(F)(F)F)ccc12" and answer again. 2.88

Now consider "Cn1cc2cc(-c3c(N)c4ccc(C(F)(F)F)nc4n(-c4ccc(Cl)cc4)c3=O)ccc2n1" and answer again. 3.09

Now consider "Nc1c(-c2ccc3ncsc3c2)c(=O)n(-c2ccc(Cl)cc2)c2nc(C(F)(F)F)ccc12" and answer again. 2.43

Now consider "CNc1c(-c2ccc3ncn(C)c3c2)c(=O)n(-c2ccccc2)c2nc(C(F)(F)F)ccc12" and answer again. 3.21

Now consider "Nc1c(-c2ccncn2)c(=O)n(-c2ccc(Cl)cc2)c2nc(C(F)(F)F)ccc12" and answer again. 2.61

Now consider "Nc1c(-c2ccco2)c(=O)n(-c2ccc(Cl)cc2)c2nc(C(F)(F)F)ccc12" and answer again. 2.74

Now consider "COCCn1ncc2cc(-c3c(N)c4ccc(C(F)(F)F)nc4n(-c4ccc(Cl)cc4)c3=O)ccc21" and answer again. 2.74

###

Assay: In vivo pharmacokinetic study in ICR mice
Conditions: mouse, PO 10 mg/kg, plasma, read-out: Half life t1/2 (converted)
Measured Metric: half-life

What value of half-life has been reported for the following compound? "Nc1c(-c2ccc3nccnc3c2)c(=O)n(-c2ccc(Cl)cc2)c2nc(C(F)(F)F)ccc12" 9.32 h

###

So I've got a bunch of molecules here, and I need their pIC50 values.
Tested on: DOHH-2 cells
Assay: Inhibitory activity test of DOHH-2 cells
Assay type: cell-based
Details: Homo sapiens, 120 h incubation, CellTiter-Glo, read-out: DOHH-2 cell inhibitory activity IC50
Schema: pIC50 number; meaning minus log10 of the concentration expressed in molar units.

What value of pIC50 has been reported for the following molecule? "Cn1cc2cc(-c3c(N)c4ccc(C(F)(F)F)nc4n(-c4ccc(Cl)cc4)c3=O)ccc2n1" 6.29

Now consider "Nc1c(-c2ccc3ncncc3c2)c(=O)n(-c2ccc(Cl)cc2)c2nc(C(F)(F)F)ccc12" and answer again. 6.60

Now consider "COCCn1ncc2cc(-c3c(N)c4ccc(C(F)(F)F)nc4n(-c4ccc(Cl)cc4)c3=O)ccc21" and answer again. 6.25

Now consider "Cc1ccc(-n2c(=O)c(-c3ccco3)c(N)c3ccc(C(F)(F)F)nc32)cc1" and answer again. 6.37

Now consider "COCCn1cc2cc(-c3c(N)c4ccc(C(F)(F)F)nc4n(-c4ccc(Cl)cc4)c3=O)ccc2n1" and answer again. 6.29

Now consider "Nc1c(-c2ccc3nonc3c2)c(=O)n(-c2ccc(Cl)cc2)c2nc(C(F)(F)F)ccc12" and answer again. 6.18

Now consider "Cn1cc(-c2c(N)c3ccc(C(F)(F)F)nc3n(-c3ccc(Cl)cc3)c2=O)ccc1=O" and answer again. 6.31

Now consider "Nc1c(-c2ccc3ncsc3c2)c(=O)n(-c2ccc(Cl)cc2)c2nc(C(F)(F)F)ccc12" and answer again. 6.29

Now consider "COc1ccc(-c2c(N)c3ccc(C(F)(F)F)nc3n(-c3ccc(Cl)cc3)c2=O)cn1" and answer again. 7.32

Now consider "Nc1c(-c2ccc3nccnc3c2)c(=O)n(-c2ccc(Cl)cc2)c2nc(C(F)(F)F)ccc12" and answer again. 8.15

###

Test: In vivo pharmacokinetic study in SD rats
Conditions: SD rat, PO 5 mg/kg, plasma; read-out: Area under curve AUC(0-t)
Measured Metric: AUC(0-t) (µg·h/mL)
Use µg·h/mL as the unit, but write only the number.

What value of AUC(0-t) has been reported for the following compound? "Nc1c(-c2ccc3nccnc3c2)c(=O)n(-c2ccc(Cl)cc2)c2nc(C(F)(F)F)ccc12" 67.1

###

Test: In vivo pharmacokinetic study in ICR mice
Conditions: mouse, plasma, PO 10 mg/kg vs IV 2 mg/kg, read-out: Bioavailability F %
Measured Metric: bioavailability (%)
Use % as the unit, but write only the number.

What value of bioavailability has been reported for the following compound? "Nc1c(-c2ccc3nccnc3c2)c(=O)n(-c2ccc(Cl)cc2)c2nc(C(F)(F)F)ccc12" 133

###

So I've got a bunch of compounds here, and I need their IC50 values.
Tested on: KP-4 cells
Assay: Inhibitory activity test of KP-4 cells
Type: cell-based
Settings: Homo sapiens, 144 h incubation, read-out: KP-4 cell inhibitory activity IC50
Use nM as the unit, but write only the number.

What value of IC50 has been reported for the following compound? "Nc1ccc(-c2c(N)c3ccc(C(F)(F)F)nc3n(-c3ccc(Cl)cc3)c2=O)cc1" 480

Now consider "CNc1c(-n2cccn2)c(=O)n(-c2ccccc2)c2nc(C(F)(F)F)ccc12" and answer again. 9730

Now consider "Nc1c(-c2ccc3nccnc3c2)c(=O)n(-c2ccc(Cl)cc2)c2nc(C(F)(F)F)ccc12" and answer again. 360

Now consider "Nc1c(-c2ccc3c(c2)NC(=O)CO3)c(=O)n(-c2ccc(Cl)cc2)c2nc(C(F)(F)F)ccc12" and answer again. 960

Now consider "Nc1c(-c2ccc3nnccc3c2)c(=O)n(-c2ccc(Cl)cc2)c2nc(C(F)(F)F)ccc12" and answer again. 500

Now consider "Nc1c(-n2cccn2)c(=O)n(-c2ccc(Cl)cc2)c2nc(C(F)(F)F)ccc12" and answer again. 910

Now consider "Nc1c(-c2ccc3c(c2)OCO3)c(=O)n(-c2ccc(Cl)cc2)c2nc(C(F)(F)F)ccc12" and answer again. 890

Now consider "Cn1cnc2ccc(-c3c(N)c4ccc(C(F)(F)F)nc4n(-c4ccc(Cl)cc4)c3=O)cc21" and answer again. 610

Now consider "COCCn1cc2cc(-c3c(N)c4ccc(C(F)(F)F)nc4n(-c4ccc(Cl)cc4)c3=O)ccc2n1" and answer again. 170

Now consider "Nc1c(-c2ccc(F)cc2)c(=O)n(-c2ccc(Cl)cc2)c2nc(C(F)(F)F)ccc12" and answer again. 480

Now consider "Nc1c(-c2ccc3ncccc3c2)c(=O)n(-c2ccc(Cl)cc2)c2nc(C(F)(F)F)ccc12" and answer again. 190

Now consider "Cn1cc(-c2c(N)c3ccc(C(F)(F)F)nc3n(-c3ccc(Cl)cc3)c2=O)ccc1=O" and answer again. 490

Now consider "Nc1c(-n2cccc2)c(=O)n(-c2ccc(Cl)cc2)c2nc(C(F)(F)F)ccc12" and answer again. 170

###

Test: In vivo pharmacokinetic study in ICR mice
Details: mouse, PO 10 mg/kg, plasma, read-out: Area under curve AUC(0-t)
Measured Metric: AUC(0-t) (µg·h/mL)
Use µg·h/mL as the unit, but write only the number.

What value of AUC(0-t) has been reported for the following molecule? "Nc1c(-c2ccc3nccnc3c2)c(=O)n(-c2ccc(Cl)cc2)c2nc(C(F)(F)F)ccc12" 211

###

Test: In vivo pharmacokinetic study in SD rats
Conditions: plasma; SD rat, PO 5 mg/kg vs IV 1 mg/kg; read-out: Bioavailability F %
Measured Metric: bioavailability (%)
Use % as the unit, but write only the number.

What value of bioavailability has been reported for the following compound? "Nc1c(-c2ccc3nccnc3c2)c(=O)n(-c2ccc(Cl)cc2)c2nc(C(F)(F)F)ccc12" 76.3

###

Assay: In vivo pharmacokinetic study in ICR mice
Details: mouse, IV 2 mg/kg, plasma, read-out: Half life T1/2 (converted)
Measured Metric: half-life

What value of half-life has been reported for the following molecule? "Nc1c(-c2ccc3nccnc3c2)c(=O)n(-c2ccc(Cl)cc2)c2nc(C(F)(F)F)ccc12" 5.53 h
